- measured.target: T1, cynomolgus monkey IL-17A (cynomolgus monkey, UniProt A0A2K5TTB0 24-155)
- T1 sequence: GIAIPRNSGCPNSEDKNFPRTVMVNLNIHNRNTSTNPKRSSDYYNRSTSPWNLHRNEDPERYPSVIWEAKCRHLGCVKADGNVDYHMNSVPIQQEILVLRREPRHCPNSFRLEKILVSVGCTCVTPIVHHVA
- assay.info: cell-based or functional assay
Property: IC50, inhibition of IL-6 production in NHDF cells, cyno IL-17A; scope: individual binders
endpoint.name: IC50, inhibition of IL-6 production in NHDF cells, cyno IL-17A (nM)

rat 30C10 (antibody, V domains shown, Parental rat monoclonal antibody (hybridoma PTA-7739); also called 30C10C) VH: EVQLVESGGGLVQPGRSQKLSCVVSGFTFNNYWMTWIRQAPGKGLEWVASVSNTGSSTYYPASVKGRFTISRDNAKSTLYLQMNSLRSEDTATYYCTREGAYYLDYWGQGVMVTVSS VL: DIVMTQSPSSLAVSPGETVTINCKSSQSLFWSESHMNYLAWYQQKPGQSPKLLIYYASTRQSGVPDRFIGSGSGTDFTLTISGVQAEDLAVYYCHHHYDSHTFGAGTKLELKR	0.2
rat 16C10 (antibody, rat IgG1, V domains shown, also called 16C10C; antibody 16C10) VH: QVELRESGPGLVQPSQTLSLTCTVSGFSLPSHSVSWIRQPPGKGLEWMGIIWNNGGTDYNSAFKSRLTISRDTSKSQVFLKMNSLQTEDTAMYFCARNMYITDYYYENYFMDAWGQGASVTVSS VL: DIVMTQSPSSLAVSIGETVTLNCKSSQSLLFSENQKNYLAWYQHKSGQSPKLLVYWTSTRQSGVPDRFMGSGSGTDFTLTISSVQAEDLAIYYCQQSYYTPYTFGAGTKLELKR	0.2
rat 1D10 (antibody, V domains shown, Parental rat monoclonal antibody; also called ID10; anti-IL-17A antibody 1D10) VH: QVQLKESGPGLVQPSQTLSLTCTVSGFSLTNYYVHWVRQPPGKGLEWMGGVWNDGDTSYNSVLRSRLSITRDTSKSQVLLKMSSLQTEDTATYYCAREGREGFVGYYVMDAWGPGASVTVSS VL: DIQMTQSPSFLSASVGERVTLSCKASQNINKYLDWFQQKLGEAPKLLIYNADNLHTGIPSRFSGSGSFSDFILTISSLQPEDDATYFCLQRESWPYTFGAGTKLELKR	0.4
rat 23E12 (antibody, V domains shown, Parental rat monoclonal antibody (hybridoma PTA-7740)) VH: QVQLKESGPGLVQPSQTLSLTCTVFGFSLTNNGVTWVRQPPGKGLEWIAEVSSGGSTDYNSALKSRLSISRDTSKSQVFLRMNSLQTEDTAIYFCARQEVFTGLLDYWGQGVMVTVSS VL: DIQMTQSPASLSASLGETVTIQCQASEDIYSGLAWYHQKPGKSPQLLILGASRLHDGVPSRFSGSGSGIEYSLKINNMQTEDEGIYFCQQGLKYPPTFGGGTKLELKR	0.3
rat 4C3 (antibody, V domains shown) VH: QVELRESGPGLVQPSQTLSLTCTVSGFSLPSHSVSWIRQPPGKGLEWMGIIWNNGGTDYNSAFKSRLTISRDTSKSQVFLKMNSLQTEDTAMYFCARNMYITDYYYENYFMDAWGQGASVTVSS VL: DIVMTQSPSSLAVSVGETVTLNCKSSQSLLFSENQKNYLAWYQHKSGQSPKLLVYWTSTRQSGVPDRFMGSGSGTDFTLTISSVQAEDLAIYYCQQSYYTPYTFGAGTKLELKR	0.2
